Tested on: T-47D breast
assay-method-text: NCI-60 one-dose screen, 48 h (100 = growth as untreated, 0 = no growth, -100 = all killed)
test-parameters: 10 µM unless noted
This is part of a sample that, as a whole, favours compounds with a hit. Of some 83,000 tested, about 20% had one in any assay.
Catalogue of growth readings, one per entry.
parameter-measured: growth (%)

[
  {
    "compound": "CSc1ccc(C(=NNS(=O)(=O)c2ccc(C)cc2)c2ccc(Cl)cc2)cc1",
    "target-desc": "T-47D breast",
    "assay-value": 89.7
  },
  {
    "compound": "N#Cc1c(-c2ccc(Br)cc2)cc(-c2c[nH]c3ccccc23)nc1N",
    "target-desc": "T-47D breast",
    "assay-value": 29.7
  },
  {
    "compound": "CC(Nc1c(C#N)cnc2ccc(-c3cncc(O)c3)cc12)c1ccccc1 (stereo not given)",
    "target-desc": "T-47D breast",
    "assay-value": 6.53
  },
  {
    "compound": "C/C(=N\\NC(=O)/C=C/CC(=O)O)c1nnn(-c2ccc([N+](=O)[O-])cc2)c1C",
    "target-desc": "T-47D breast",
    "assay-value": 98.9
  },
  {
    "compound": "Cn1c(SCC(=O)c2ccc(Br)cc2)nc2ccccc2c1=O",
    "target-desc": "T-47D breast",
    "assay-value": 78.4
  },
  {
    "compound": "NC(=O)c1c(NC(=O)c2ccc(C(F)(F)F)cc2)sc2c1CCC(=O)C2",
    "target-desc": "T-47D breast",
    "assay-value": -28.9
  },
  {
    "compound": "NC(=S)n1c(=O)n(-c2cccc(C(F)(F)F)c2)c(=O)c2cc(-c3ccc(F)cc3F)ccc21",
    "target-desc": "T-47D breast",
    "assay-value": -12.9
  },
  {
    "compound": "Fc1ccc(-c2cn3c(-c4c[nH]c5ccc(Br)cc45)csc3n2)cc1",
    "target-desc": "T-47D breast",
    "assay-value": 66.3
  },
  {
    "compound": "C#C[C@]1(O)CC[C@H]2[C@@H]3CC=C4c5sc(Nc6ncccc6C)nc5CC[C@]4(C)[C@H]3CC[C@@]21C",
    "target-desc": "T-47D breast",
    "assay-value": 29.2
  },
  {
    "compound": "COc1ccc(C(=NNS(=O)(=O)c2ccc(C)cc2)c2ccccc2)cc1OC",
    "target-desc": "T-47D breast",
    "assay-value": 90
  },
  {
    "compound": "O=C1[C@H]2Cc3c([nH]c4ccccc34)[C@H](c3ccc(Br)cc3)N2C(=O)CN1C1CCN(CC2CCCCC2)CC1",
    "target-desc": "T-47D breast",
    "assay-value": 97.9
  },
  {
    "compound": "CC1CC(=O)C2=C(C1)Nc1ccc(Br)cc1CC2c1c[nH]c2ccc(Br)cc12 (stereo not given)",
    "target-desc": "T-47D breast",
    "assay-value": 33.4
  },
  {
    "compound": "CN1CCN(c2ccc(Nc3nc(NCCCNS(=O)(=O)c4cccc5ccccc45)c4sccc4n3)cc2)CC1",
    "target-desc": "T-47D breast",
    "assay-value": -2.47
  },
  {
    "compound": "CCOC(=O)c1c(NC(=O)c2ccc(C(F)(F)F)cc2)sc2c(CN3CCN(C)CC3)c(O)ccc12",
    "target-desc": "T-47D breast",
    "assay-value": -35
  },
  {
    "compound": "COc1ccc(/C=N/NC(=O)c2c(N)nn(C)c2Nc2ccccc2)cc1Oc1ccccc1",
    "target-desc": "T-47D breast",
    "assay-value": 78.1
  }
]
